Assay: qHTS Assay for Rab9 Promoter Activators; further: nearly all actives have a fitted effect of over 60% in size
Conditions: Huh7 Rab9 promoter-luciferase reporter, luminescence, 24 h; series mostly up to 9.22 µM
Out of some 320,000 compounds screened, about 9,100 (2.8%) were called active. Another 3% or so got no clear call; they are omitted. The call rests on the fitted dose curve; in most records, active means well fitted activation curve with a large enough effect; inconclusive means small, poorly fitted or top-dose-only effect; inactive means no such curve, though single readings can be large or run the other way. Shown is part of a subset that was picked to be rich in actives.
Write down the outcome that applies. Available outcomes: active, inactive

compound | label class
CCCN(CC(=O)Nc1ccccc1C)C(=O)c1ccc2[nH]c3c(c2c1)CC(C)CC3 (stereo unspecified) | inactive

[ask] Give the logged outcome of this assay for the following compound: CCCN(CCC)CC(O)COc1ccccc1C(=O)Nc1ccccc1 (stereo unspecified)
[reply] inactive

[ask] Give the logged outcome of this assay for the following compound: CCOC(=O)CSc1nnc(-c2ccncc2)o1
[reply] inactive

[ask] Give the logged outcome of this assay for the following compound: Cc1cccc(C)c1OC(=O)CSc1nnc(-c2ccccc2)o1
[reply] inactive

[ask] Give the logged outcome of this assay for the following compound: CCCCN(Cc1ccccc1)C(=O)C1CCN(Cc2sccc2C)CC1
[reply] inactive

[ask] Give the logged outcome of this assay for the following compound: COc1ccc2c(Cl)c(C(=O)NCc3ccco3)sc2c1
[reply] active

###

Test: qHTS Assay for Rab9 Promoter Activators; further: nearly all actives have a fitted effect of over 60% in size
Details: Huh7 Rab9 promoter-luciferase reporter, luminescence, 24 h; series mostly up to 9.22 µM
The whole screen tested about 320,000 compounds, of which about 9,100 (2.8%) were called active. About 3% were inconclusive and are not listed. The call rests on the fitted dose curve; in most records, active means well fitted activation curve with a large enough effect; inconclusive means small, poorly fitted or top-dose-only effect; inactive means no such curve, though single readings can be large or run the other way. The full list was thinned out, with actives kept by preference.
Write down the outcome that applies. Available outcomes: Yes (active), No (inactive)

Example entries begin here.
compound | label class
Cc1ccc(Oc2cnn(-c3ccccc3)c(=O)c2Br)cc1 | No
Cc1ccc(NC(=O)CCN2C(=O)c3ccccc3C2=O)cc1C | No
COc1ccc(Cl)cc1C(=O)OCC(=O)NCc1cccs1 | No
N/C(=N\OC(=O)/C=C/c1ccccc1)c1ccc(Br)cc1 | No
Cc1ccc(Cl)cc1NC(=O)c1ccccn1 | No
O=C(NCCC1=CCCCC1)c1ccc(-n2cncn2)cc1 | Yes
NS(=O)(=O)c1ccc(CCNC(=O)COC(=O)COc2cccc(C(F)(F)F)c2)cc1 | No
O=C(Nc1ccc(NC(=O)c2ccccc2F)cc1)c1ccccc1F | No

[ask] Give the logged outcome of this assay for the following compound: Cc1ccccc1Nc1nc(-c2cccnc2)cs1
[reply] Yes

[ask] Give the logged outcome of this assay for the following compound: O=C(CCc1nc2sc3c(c2c(=O)[nH]1)CCCC3)NCC(=O)Nc1ccccc1Br
[reply] No

[ask] Give the logged outcome of this assay for the following compound: O=C(COC(=O)c1ccccn1)NNC(=O)c1ccc([N+](=O)[O-])cc1
[reply] No

[ask] Give the logged outcome of this assay for the following compound: N/C(=N\OC(=O)c1ccc([N+](=O)[O-])cc1)c1ccccn1
[reply] Yes

###

Assay: qHTS Assay for Rab9 Promoter Activators; further: nearly all actives have a fitted effect of over 60% in size; further: potency means the concentration at half of the fitted maximal effect
Conditions: Huh7 Rab9 promoter-luciferase reporter, luminescence, 24 h; series mostly up to 9.22 µM
Excerpt: NIH Chemical Genomics Center [NCGC] NIH Molecular Libraries Probe Production centers Network [MLPCN] […] The Rab9 promoter is cloned in front of the luciferase reporter gene, therefore […] promoter activation results in luciferase expression. […] 7.Read using the luminescence protocol on the ViewLux plate reader (Perkin Elmer).
Among all 320,000 compounds or so, about 9,100 (2.8%) were called active. Roughly 3% stayed inconclusive and do not appear here. The full list was thinned out, with actives kept by preference.
readout type: Potency

Here are 6 compounds together with their reported answers.
compound | readout type | result
CCOc1ccc(C(=O)CCC(=O)Nc2ccncc2)cc1 | Potency | inactive
COc1cc2ccccc2cc1C(=O)Nc1ccncc1 | Potency | inactive
COc1ccccc1C(=O)NCCC(=O)N(C)Cc1cccnc1 | Potency | inactive
CC(=O)Oc1ccc(-c2cccc(C(=O)N3CCCCC3)c2)cc1 | Potency | inactive
CCOc1c(Nc2cccc(Cl)c2)c(=O)c1=O | Potency | inactive
Cc1ccc(S(=O)(=O)N2CCCCC2)cc1C(=O)N1CCN(CCO)CC1 | Potency | inactive

Batch request: Potency per item, same order as input.
1. CN(C)CCN=c1cc(-c2ccccc2)oc2ccc(Cl)cc12
2. C[C@H](NC(=O)c1ccccc1Cl)C(=O)OCC(=O)N1CCN(c2ccccc2)CC1
3. CC(=O)c1sc(N/N=C\c2ccc(C)cc2)nc1C
4. O=C(CN1CCCCCC1)Nc1ccc(Br)cc1[N+](=O)[O-]
5. CCc1ccccc1NC(=O)CN(C)C(=O)c1cc(C2CC2)nn1-c1ccccc1
6. S=C(NNC(=S)NC1CC2CCC1C2)NC1CC2C=CC1C2 (stereo unspecified)
7. Cc1cccc(-c2oc3ccc(-c4ccc5c(c4)OCO5)cc3c2C#Cc2cncn2C)c1
8. CC(=O)c1sc(N)nc1C

[reply]
2.82 µM (active)
inactive
2 µM (active)
inactive
inactive
inactive
inactive
inactive

Batch request: Potency per item, same order as input.
1. Cc1csc2nc(COC(=O)c3cccc(N(C)C)c3)cc(=O)n12
2. Cc1ccc(S(=O)(=O)Nc2nc(C)cc(N/N=C/c3ccc(O)cc3)n2)cc1
3. C[C@@H](NC(=O)c1nc[nH]c1C(=O)N1CCN(C(=O)OC(C)(C)C)CC1)c1ccccc1
4. CC(=O)c1c(C)[nH]c(C(=O)COc2ccc3c(C)cc(=O)oc3c2)c1C
5. Cc1ccc(O)c(NC(=O)c2cc(-c3ccco3)on2)c1
6. S=C(NNC(=S)NC1CC2C=CC1C2)NC1CC2C=CC1C2 (stereo unspecified)

[reply]
["2.82 µM (active)", "inactive", "inactive", "inactive", "inactive", "inactive"]

Batch request: Potency per item, same order as input.
1. CC(=O)c1sc(NC(=O)CCCOc2ccccc2C)nc1C
2. COc1ccc(OCc2cccc(C(=O)N3CCCC3)c2)cc1
3. COc1ccccc1OCCNC(=O)C(CCSC)NC(=O)COc1ccccc1 (stereo unspecified)
4. CC(=O)c1sc(NC(=O)C2=NN(c3ccccc3)C(=O)CC2)nc1C
5. Cc1nn2c(=O)cc(COC(=O)c3ccc(NC(=O)C(C)(C)C)cc3)nc2s1
6. C/C(=N\NC(=O)OC(C)(C)C)c1ccc[nH]1
7. CC(=O)Nc1ccc(NC(=O)COC(=O)c2ccccc2C(=O)c2ccccc2)cc1
8. CC(C)N(C(=O)CN1CCN(S(=O)(=O)c2ccc(Br)s2)CC1)C(C)C

[reply]
1. inactive
2. 0.398 µM (active)
3. inactive
4. inactive
5. inactive
6. 2.82 µM (active)
7. inactive
8. inactive
